Origin of values: ChEMBL document CHEMBL3046161

# System: Shigella flexneri
# assay remarks: Antibacterial activity against Shigella flexneri MTCC 1457 assessed as growth inhibition at 3.12 to 50 ug/mL after 24 hr by agar disk diffusion method
# Assay type: functional
Decision: inhibition zone (IZ) compared against 20 mm; not below it gives Condition met, below it gives Condition not met.

compound	assigned label
Cc1ccc2nc(NC(=O)CNc3ccc(-c4nc(N5CC(C)CC(C)C5)nc(N5CC(C)CC(C)C5)n4)cc3)sc2c1 (configuration not stated)	Condition not met

Inquiry: Please indicate if the recorded inhibition zone (IZ) for CCOc1ccc2nc(NC(=O)CNc3ccc(-c4nc(N5CC(C)CC(C)C5)nc(N5CC(C)CC(C)C5)n4)cc3)sc2c1 (configuration not stated) meets or exceeds 20 mm.
Reply text: Condition not met

Inquiry: Please indicate if the recorded inhibition zone (IZ) for COc1ccc(NC(=O)CNc2ccc(-c3nc(N4CC(C)CC(C)C4)nc(N4CC(C)CC(C)C4)n3)cc2)cc1 (configuration not stated) meets or exceeds 20 mm.
Reply text: Condition not met

Inquiry: Please indicate if the recorded inhibition zone (IZ) for CC1CC(C)CN(c2nc(-c3ccc(NCC(=O)Nc4nc5ccc(C#N)cc5s4)cc3)nc(N3CC(C)CC(C)C3)n2)C1 (configuration not stated) meets or exceeds 20 mm.
Reply text: Condition met

Inquiry: Please indicate if the recorded inhibition zone (IZ) for COc1ccc2nc(NC(=O)CNc3ccc(-c4nc(N5CC(C)CC(C)C5)nc(N5CC(C)CC(C)C5)n4)cc3)sc2c1 (configuration not stated) meets or exceeds 20 mm.
Reply text: Condition met

Inquiry: Please indicate if the recorded inhibition zone (IZ) for Cc1ccc(NC(=O)CNc2ccc(-c3nc(N4CC(C)CC(C)C4)nc(N4CC(C)CC(C)C4)n3)cc2)cc1 (configuration not stated) meets or exceeds 20 mm.
Reply text: Condition not met

Inquiry: Please indicate if the recorded inhibition zone (IZ) for CC1CC(C)CN(c2nc(-c3ccc(NCC(=O)Nc4nc5ccc(I)cc5s4)cc3)nc(N3CC(C)CC(C)C3)n2)C1 (configuration not stated) meets or exceeds 20 mm.
Reply text: Condition met

Inquiry: Please indicate if the recorded inhibition zone (IZ) for CC1CC(C)CN(c2nc(-c3ccc(NCC(=O)Nc4ccccc4)cc3)nc(N3CC(C)CC(C)C3)n2)C1 (configuration not stated) meets or exceeds 20 mm.
Reply text: Condition not met

Inquiry: Please indicate if the recorded inhibition zone (IZ) for CC(=O)Nc1ccc(NC(=O)CNc2ccc(-c3nc(N4CC(C)CC(C)C4)nc(N4CC(C)CC(C)C4)n3)cc2)cc1 (configuration not stated) meets or exceeds 20 mm.
Reply text: Condition not met

Inquiry: Please indicate if the recorded inhibition zone (IZ) for CC1CC(C)CN(c2nc(-c3ccc(NCC(=O)Nc4ccc(Cl)cc4)cc3)nc(N3CC(C)CC(C)C3)n2)C1 (configuration not stated) meets or exceeds 20 mm.
Reply text: Condition met

Inquiry: Please indicate if the recorded inhibition zone (IZ) for CC1CC(C)CN(c2nc(-c3ccc(NCC(=O)Nc4nc5ccc(Br)cc5s4)cc3)nc(N3CC(C)CC(C)C3)n2)C1 (configuration not stated) meets or exceeds 20 mm.
Reply text: Condition met

Inquiry: Please indicate if the recorded inhibition zone (IZ) for CCOc1ccc(NC(=O)CNc2ccc(-c3nc(N4CC(C)CC(C)C4)nc(N4CC(C)CC(C)C4)n3)cc2)cc1 (configuration not stated) meets or exceeds 20 mm.
Reply text: Condition met

Inquiry: Please indicate if the recorded inhibition zone (IZ) for CC1CC(C)CN(c2nc(-c3ccc(NCC(=O)Nc4nc5ccc(F)cc5s4)cc3)nc(N3CC(C)CC(C)C3)n2)C1 (configuration not stated) meets or exceeds 20 mm.
Reply text: Condition met

Inquiry: Please indicate if the recorded inhibition zone (IZ) for CC1CC(C)CN(c2nc(-c3ccc(NCC(=O)Nc4ccc([N+](=O)[O-])cc4)cc3)nc(N3CC(C)CC(C)C3)n2)C1 (configuration not stated) meets or exceeds 20 mm.
Reply text: Condition not met

Inquiry: Please indicate if the recorded inhibition zone (IZ) for CC1CC(C)CN(c2nc(-c3ccc(NCC(=O)Nc4ccc(Br)cc4)cc3)nc(N3CC(C)CC(C)C3)n2)C1 (configuration not stated) meets or exceeds 20 mm.
Reply text: Condition met

Inquiry: Please indicate if the recorded inhibition zone (IZ) for CC1CC(C)CN(c2nc(-c3ccc(NCC(=O)Nc4nc5ccccc5s4)cc3)nc(N3CC(C)CC(C)C3)n2)C1 (configuration not stated) meets or exceeds 20 mm.
Reply text: Condition not met

Inquiry: Please indicate if the recorded inhibition zone (IZ) for CC1CC(C)CN(c2nc(-c3ccc(NCC(=O)Nc4ccc(C#N)cc4)cc3)nc(N3CC(C)CC(C)C3)n2)C1 (configuration not stated) meets or exceeds 20 mm.
Reply text: Condition not met

Inquiry: Please indicate if the recorded inhibition zone (IZ) for CC1CC(C)CN(c2nc(-c3ccc(NCC(=O)Nc4nc5ccc([N+](=O)[O-])cc5s4)cc3)nc(N3CC(C)CC(C)C3)n2)C1 (configuration not stated) meets or exceeds 20 mm.
Reply text: Condition met

Inquiry: Please indicate if the recorded inhibition zone (IZ) for CC1CC(C)CN(c2nc(-c3ccc(NCC(=O)Nc4nc5ccc(Cl)cc5s4)cc3)nc(N3CC(C)CC(C)C3)n2)C1 (configuration not stated) meets or exceeds 20 mm.
Reply text: Condition met

Inquiry: Please indicate if the recorded inhibition zone (IZ) for CC1CC(C)CN(c2nc(-c3ccc(NCC(=O)Nc4ccc(F)cc4)cc3)nc(N3CC(C)CC(C)C3)n2)C1 (configuration not stated) meets or exceeds 20 mm.
Reply text: Condition met

Inquiry: Please indicate if the recorded inhibition zone (IZ) for CC(=O)Nc1ccc2nc(NC(=O)CNc3ccc(-c4nc(N5CC(C)CC(C)C5)nc(N5CC(C)CC(C)C5)n4)cc3)sc2c1 (configuration not stated) meets or exceeds 20 mm.
Reply text: Condition not met
